Where do the numbers come from? From paper PMC3492951.

TESTED_SYSTEM: CARM1 (also known as PRMT4) (Homo sapiens)
Sequence (Q86X55 whole entry, species assumed): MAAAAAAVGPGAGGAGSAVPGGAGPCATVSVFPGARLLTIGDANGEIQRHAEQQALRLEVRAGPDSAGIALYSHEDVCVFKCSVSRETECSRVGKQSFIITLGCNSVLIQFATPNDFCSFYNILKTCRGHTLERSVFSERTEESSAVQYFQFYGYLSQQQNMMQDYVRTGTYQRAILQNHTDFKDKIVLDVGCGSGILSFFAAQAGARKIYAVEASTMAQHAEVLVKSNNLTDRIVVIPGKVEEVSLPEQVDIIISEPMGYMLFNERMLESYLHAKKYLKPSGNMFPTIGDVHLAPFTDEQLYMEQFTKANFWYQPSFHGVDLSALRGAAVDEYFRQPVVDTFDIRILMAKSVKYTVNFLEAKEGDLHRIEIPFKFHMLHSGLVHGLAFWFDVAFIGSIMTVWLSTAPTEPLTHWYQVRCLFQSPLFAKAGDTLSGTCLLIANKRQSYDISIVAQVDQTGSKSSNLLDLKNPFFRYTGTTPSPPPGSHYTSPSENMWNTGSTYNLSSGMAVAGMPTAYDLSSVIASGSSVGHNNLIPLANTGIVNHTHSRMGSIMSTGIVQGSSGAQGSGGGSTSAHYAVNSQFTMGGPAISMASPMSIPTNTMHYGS
MEASURE: Ki (µM)
Lab book: enter the figure in µM, no units written.

GET Ki | system: CARM1 (also known as PRMT4) (Homo sapiens) | item: N[C@@H](CCSC[C@H]1O[C@@H](n2cnc3c(NCc4ccccc4)ncnc32)[C@H](O)[C@@H]1O)C(=O)O [Compound 2, N6-benzyl-SAH]
18

###

TESTED_SYSTEM: PRMT1 (Homo sapiens, UniProt Q99873)
Sequence (Q99873 whole entry, species assumed): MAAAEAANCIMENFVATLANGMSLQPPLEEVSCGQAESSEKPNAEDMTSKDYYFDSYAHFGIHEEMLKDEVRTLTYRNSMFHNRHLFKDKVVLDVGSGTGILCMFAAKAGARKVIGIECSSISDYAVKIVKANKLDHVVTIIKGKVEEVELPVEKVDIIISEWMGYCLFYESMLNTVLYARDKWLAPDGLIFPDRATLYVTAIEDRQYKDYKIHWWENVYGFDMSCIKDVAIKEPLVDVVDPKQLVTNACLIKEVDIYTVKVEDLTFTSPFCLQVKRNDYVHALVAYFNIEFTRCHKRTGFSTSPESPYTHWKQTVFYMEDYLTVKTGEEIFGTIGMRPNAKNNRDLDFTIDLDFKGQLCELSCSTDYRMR
METHOD: PRMT1 enzyme inhibition
Assay type: biochemical
TEST_PARAMETERS: read-out: Ki PRMT1; competitive inhibitors
MEASURE: pKi
The scale used: pKi is minus the common logarithm of the concentration in molar units.

Provide pKi value for the following compound: N[C@@H](CCSC[C@H]1O[C@@H](n2cnc3c(NCc4ccccc4)ncnc32)[C@H](O)[C@@H]1O)C(=O)O [Compound 2, N6-benzyl-SAH]
4.67
